Test: Cmax in male ICR mouse at 5 mg/kg, po
Format: ADME, organism-based
Set-up: dose 5 mg/kg, route oral
Conditions: in vivo
Measure Name: Cmax
A complete answer gives the number and then names the unit.

Q: Entry under review: CS(=O)(=O)c1ccc(-c2nnc(/C=C/c3nnc(-c4ccc(C#N)cc4)o3)n2-c2ccccc2Cl)nc1 . Reported Cmax?
A: 967 ng/mL

###

Test: Cmax in female ICR mouse at 1 mg/kg, iv
Format: ADME, organism-based
Parameters: dose 1 mg/kg, route intravenous
Details: in vivo
Measure Name: Cmax
A complete answer gives the number and then names the unit.

Q: Entry under review: CS(=O)(=O)c1ccc(-c2nnc(/C=C/c3nnc(-c4ccc(C#N)cc4)o3)n2-c2ccccc2Cl)nc1 . Reported Cmax?
A: 462 ng/mL

###

Assay: Cmax in male ICR mouse at 5 mg/kg, ip
Format: ADME, organism-based
Set-up: dose 5 mg/kg, route intraperitoneal
Conditions: in vivo
Measure Name: Cmax
A complete answer gives the number and then names the unit.

Q: Entry under review: CS(=O)(=O)c1ccc(-c2nnc(/C=C/c3nnc(-c4ccc(C#N)cc4)o3)n2-c2ccccc2Cl)nc1 . Reported Cmax?
A: 2360 ng/mL

###

Assay: Half life in female ICR mouse at 5 mg/kg, ip
Format: ADME, organism-based
Design: dose 5 mg/kg, route intraperitoneal
Settings: in vivo
Measure Name: half-life (h)
State just the number; it will be interpreted in h.

Q: Entry under review: CS(=O)(=O)c1ccc(-c2nnc(/C=C/c3nnc(-c4ccc(C#N)cc4)o3)n2-c2ccccc2Cl)nc1 . Reported half-life?
A: 2.73

###

Assay: Tmax in male ICR mouse at 1 mg/kg, iv
Format: ADME, organism-based
Design: dose 1 mg/kg, route intravenous
Conditions: in vivo
Measure Name: Tmax (min)
State just the number; it will be interpreted in min.

Q: Entry under review: CS(=O)(=O)c1ccc(-c2nnc(/C=C/c3nnc(-c4ccc(C#N)cc4)o3)n2-c2ccccc2Cl)nc1 . Reported Tmax?
A: 15

###

Assay: Cmax in female ICR mouse at 5 mg/kg, ip
Assay type: ADME, organism-based
Set-up: dose 5 mg/kg, route intraperitoneal
Settings: in vivo
Measure Name: Cmax (ng/mL)
State just the number; it will be interpreted in ng/mL.

Q: Entry under review: CS(=O)(=O)c1ccc(-c2nnc(/C=C/c3nnc(-c4ccc(C#N)cc4)o3)n2-c2ccccc2Cl)nc1 . Reported Cmax?
A: 2660

###

Test: AUC (0 to infinity) in male ICR mouse at 5 mg/kg, ip
Format: ADME, organism-based
Set-up: time infinity, dose 5 mg/kg, route intraperitoneal
Details: plasma
Measure Name: AUC(0-inf) (ng·h/mL)
State just the number; it will be interpreted in ng·h/mL.

Q: Entry under review: CS(=O)(=O)c1ccc(-c2nnc(/C=C/c3nnc(-c4ccc(C#N)cc4)o3)n2-c2ccccc2Cl)nc1 . Reported AUC(0-inf)?
A: 11200

###

Test: AUC (0 to t) in male ICR mouse at 5 mg/kg, po
Format: ADME, organism-based
Set-up: dose 5 mg/kg, route oral
Conditions: plasma
Measure Name: AUC(0-t) (ng·h/mL)
State just the number; it will be interpreted in ng·h/mL.

Q: Entry under review: CS(=O)(=O)c1ccc(-c2nnc(/C=C/c3nnc(-c4ccc(C#N)cc4)o3)n2-c2ccccc2Cl)nc1 . Reported AUC(0-t)?
A: 8250
